System: ASPC1
protocol: Cytotoxicity against human AsPC1 cells assessed as inhibition of cell proliferation after 48 hrs by XTT assay
Format: functional, cell-based
particulars: ASPC1, 48 h, read-out: IC50
pIC50: −log10 of the molar value.
readoutType: pIC50

{"mol": "COc1c(O)cc2oc3cc(O)c(CCC(C)C)c(O)c3c(=O)c2c1CCC(C)C", "readoutType": "pIC50", "comparisonSymbol": "=", "readoutValue": 5.33}
{"mol": "C=CCOc1cc2oc3cc(OC)c(CC=C(C)C)c(O)c3c(=O)c2c(CC=C(C)C)c1OC", "readoutType": "pIC50", "comparisonSymbol": "<", "readoutValue": 4.00}
{"mol": "CC(C)=CCc1c(O)cc2oc3cc(O)c(OCc4cn(CC(=O)OC(C)(C)C)nn4)c(CC=C(C)C)c3c(=O)c2c1O", "readoutType": "pIC50", "comparisonSymbol": "<", "readoutValue": 4.00}
{"mol": "C=CCOc1cc2oc3cc(O)c(CC=C(C)C)c(O)c3c(=O)c2c(CC=C(C)C)c1OC", "readoutType": "pIC50", "comparisonSymbol": "=", "readoutValue": 4.67}
{"mol": "COc1c(OC(C)=O)cc2oc3cc(OC(C)=O)c(CC=C(C)C)c(O)c3c(=O)c2c1CC=C(C)C", "readoutType": "pIC50", "comparisonSymbol": "=", "readoutValue": 4.85}

====

System: NCI-H460
protocol: Cytotoxicity against human NCI-H460 cells assessed as inhibition of cell proliferation after 48 hrs by XTT assay
Format: functional, cell-based
particulars: NCI-H460, 48 h
pIC50: −log10 of the molar value.
readoutType: pIC50

{"compound": "COc1c(OC(C)=O)cc2oc3cc(OC(C)=O)c(CC=C(C)C)c(O)c3c(=O)c2c1CC=C(C)C", "system": "NCI-H460", "comparisonSymbol": "=", "readoutValue": 4.90}
{"compound": "COc1c(O)cc2oc3cc4c(c(O)c3c(=O)c2c1CC=C(C)C)CCC(C)(C)O4", "system": "NCI-H460", "comparisonSymbol": "<", "readoutValue": 4.00}
{"compound": "COc1c(O)cc2oc3cc(O)c(CC=C(C)C)c(O)c3c(=O)c2c1CC=C(C)C [MANGOSTIN]", "system": "NCI-H460", "comparisonSymbol": "=", "readoutValue": 5.49}
{"compound": "COc1ccc2oc3cc(O)c(CCC(C)C)c(O)c3c(=O)c2c1CCC(C)C", "system": "NCI-H460", "comparisonSymbol": "<", "readoutValue": 4.00}
{"compound": "C=CCOc1cc2oc3cc(OCC=C)c(OC)c(CC=C(C)C)c3c(=O)c2c(OC)c1CC=C(C)C", "system": "NCI-H460", "comparisonSymbol": "=", "readoutValue": 4.84}
{"compound": "COc1c(O)cc2oc3cc4c(c(O)c3c(=O)c2c1CC=C(C)C)C=CC(C)(C)O4 [MANGOSTANIN]", "system": "NCI-H460", "comparisonSymbol": "=", "readoutValue": 4.71}
{"compound": "COc1cccc2c1C(=O)c1c(O)c3c(c(O)c1C2=O)C[C@@](O)(C(=O)CO)C[C@@H]3O[C@H]1C[C@H](N)[C@H](O)[C@H](C)O1 [DOXORUBICIN]", "system": "NCI-H460", "comparisonSymbol": "=", "readoutValue": 7.10}

Sourced from ChEMBL document CHEMBL3259560
